Reported EC50, ELK-luciferase assay values for the following binders.
# ASSAY SYSTEM: beta-klotho
# MEASUREMENT PROTOCOL: cell-based or functional assay
ATTRIBUTE MEASURED: EC50, ELK-luciferase assay

{"BINDER": "dually PEGylated FGF21 mutant E37C, R77C, P171G (ligand, 20 kDa methoxy-PEG-maleimide on Cys 37 and on Cys 77) MHPIPDSSPLLQFGGQVRQRYLYTDDAQQTEAHLEIRCDGTVGGAADQSPESLLQLKALKPGVIQILGVKTSRFLCQCPDGALYGSLHFDPEACSFRELLLEDGYNVYQSEAHGLPLHLPGNKSPHRDPAPRGPARFLPLPGLPPAPPEPPGILAPQPPDVGSSDPLSMVGGSQGRSPSYAS", "REPORTED MEASUREMENT": "27 nM"}
{"BINDER": "dually PEGylated FGF21 mutant E37C, G120C, P171G (ligand, 20 kDa methoxy-PEG-maleimide on Cys 37 and on Cys 120) MHPIPDSSPLLQFGGQVRQRYLYTDDAQQTEAHLEIRCDGTVGGAADQSPESLLQLKALKPGVIQILGVKTSRFLCQRPDGALYGSLHFDPEACSFRELLLEDGYNVYQSEAHGLPLHLPCNKSPHRDPAPRGPARFLPLPGLPPAPPEPPGILAPQPPDVGSSDPLSMVGGSQGRSPSYAS", "REPORTED MEASUREMENT": "35 nM"}
